Values from patent US20250084067A1

So I've got a bunch of molecules here, and I need their pIC50 values.
- target.or.test.system: CDK2 CycE1 kinase (Homo sapiens (Human))
- method: Determination of inhibitory activity against CDK2 CycE1 kinase
- Assay type: biochemical
- measurement.context: 10 μM ATP
pIC50: −log10 of the molar value.

Reference set (2 entries):
CC(C)NC(=O)O[C@@H]1CC[C@H](c2cc(Nc3ccc4c(c3)CC(=O)N4)n[nH]2)C1 ... > 8.00
COCCNc1ccc(Nc2cc(C3CCC(OC(=O)NC(C)C)C3)[nH]n2)nc1 (centres unmarked) ... 7.30 to 8.00

# map each molecule to its pIC50
1. CC(C)NC(=O)OC1CCC(c2cc(NC3CCN(S(C)(=O)=O)CC3)n[nH]2)C1 (centres unmarked)
2. CC(C)NC(=O)O[C@@H]1CC[C@H](c2cc(Nc3ccc(N=S(C)(C)=O)cc3)n[nH]2)C1

[A]
1. 7.30 to 8.00
2. 7.30 to 8.00

* * *

- target.or.test.system: CDK2/CycA2 kinase (Homo sapiens (Human))
- method: Determination of inhibitory activity against CDK2/CycA2 kinase
- Type: biochemical
- measurement.context: 10 μM ATP
pIC50: −log10 of the molar value.
So I've got a bunch of compounds here, and I need their pIC50 values.

CC(C)NC(=O)O[C@@H]1CC[C@H](c2cc(Nc3ccc(NS(C)(=O)=O)c(Cl)n3)n[nH]2)C1 ... > 8.00
CC(C)NC(=O)O[C@@H]1CC[C@H](c2cc(Nc3ccc(S(C)(=N)=O)cc3)n[nH]2)C1 (stereo partly drawn) ... > 8.00

The record that follows has no pIC50 shown yet.
[Q] // returns reported pIC50 for input CC(C)NC(=O)O[C@@H]1CC[C@H](c2cc(Nc3ccc(NS(C)(=O)=O)c(C(F)(F)F)c3)n[nH]2)C1
[A] > 8.00

* * *

So I've got a bunch of molecules here, and I need their IC50 values.
- target.or.test.system: CDK2/CycA2 kinase (Homo sapiens (Human), UniProt P24941)
- method: Determination of inhibitory activity against CDK2/CycA2 kinase
- Assay type: biochemical
- measurement.context: 10 μM ATP

# map each molecule to its IC50
1. CC(C)NC(=O)O[C@@H]1CC[C@H](c2cc(Nc3cc(F)c(NS(C)(=O)=O)cc3F)n[nH]2)C1 [Example 32]
2. CC(C)NC(=O)O[C@@H]1CC[C@H](c2cc(Nc3ccc(NS(C)(=O)=O)c(F)c3F)n[nH]2)C1 [Example 37]
3. CC(C)NC(=O)O[C@@H]1CC[C@H](c2cc(Nc3ccc(NS(C)(=O)=O)c(F)c3)n[nH]2)C1 [Example 23]
4. O=C(NC1CC1)O[C@@H]1CC[C@H](c2cc(Nc3ccc4c(c3)CS(=O)(=O)C4)n[nH]2)C1 [Example 67]
5. CC(C)NC(=O)O[C@@H]1CC[C@H](c2cc(Nc3ccc(P(C)(C)=O)cc3)n[nH]2)C1 [Example 41]

[A]
1: < 10 nM; 2: < 10 nM; 3: < 10 nM; 4: < 10 nM; 5: 10 to 50 nM

# map each molecule to its IC50
1. COc1ccc(Nc2cc([C@H]3CC[C@@H](OC(=O)NC(C)C)C3)[nH]n2)nc1 [Example 9]
2. CC(C)NC(=O)O[C@@H]1CC[C@H](c2cc(Nc3ccc(C(N)=O)cc3)n[nH]2)C1 [Example 46]
3. CC(C)NC(=O)O[C@@H]1CC[C@H](c2cc(Nc3ccc4c(c3)CCN4S(C)(=O)=O)n[nH]2)C1 [Example 51]
4. CC(C)NC(=O)O[C@@H]1CC[C@H](c2cc(Nc3ccc4c(c3)OCO4)n[nH]2)C1 [Example 39]
5. CC(=O)Nc1ccc(Nc2cc([C@H]3CC[C@@H](OC(=O)NC(C)C)C3)[nH]n2)nc1 [Example 6]
6. CC(C)NC(=O)O[C@@H]1CC[C@H](c2cc(Nc3ccc(CN(C)C)cc3F)n[nH]2)C1 [Example 10]
7. CC(C)NC(=O)O[C@@H]1CC[C@H](c2cc(NC3CCN(S(=O)(=O)c4cnn(C)c4)CC3)n[nH]2)C1 [Example 60]
8. CC(C)NC(=O)OC1CCC(c2cc(Nc3ncc(NS(C)(=O)=O)cn3)n[nH]2)C1 (stereo not drawn) [Example 19]

[A]
10 to 50 nM
< 10 nM
10 to 50 nM
< 10 nM
< 10 nM
10 to 50 nM
10 to 50 nM
10 to 50 nM

# map each molecule to its IC50
1. CC(C)NC(=O)O[C@@H]1CC[C@H](c2cc(Nc3ccc(N4CCCS4(=O)=O)cn3)n[nH]2)C1 [Example 28]
2. COc1nc(Nc2cc([C@H]3CC[C@@H](OC(=O)NC(C)C)C3)[nH]n2)ccc1NS(C)(=O)=O [Example 45]

[A]
1. < 10 nM
2. < 10 nM
